# METHOD NOTES: Cytotoxicity against HBV transfected human ayw wild type HepG2(2.2.15) cells by MTT assay
# Assay type: cell-based
# RUN PARAMETERS: HBV-transfected ayw wild type HepG2(2.2.15) cells
READOUT: CC50 (µM)
Answers are plain numbers, in µM.

Incoming: Find the recorded CC50 belonging to `O=c1[nH][nH]c(=O)c2c(-c3ccc4c(c3)OCO4)c3c4c(ccc3cc12)OCO4` and report it.
Outgoing: 9
